Molecular target: UniProt O08858
Sequence (O08858 whole entry): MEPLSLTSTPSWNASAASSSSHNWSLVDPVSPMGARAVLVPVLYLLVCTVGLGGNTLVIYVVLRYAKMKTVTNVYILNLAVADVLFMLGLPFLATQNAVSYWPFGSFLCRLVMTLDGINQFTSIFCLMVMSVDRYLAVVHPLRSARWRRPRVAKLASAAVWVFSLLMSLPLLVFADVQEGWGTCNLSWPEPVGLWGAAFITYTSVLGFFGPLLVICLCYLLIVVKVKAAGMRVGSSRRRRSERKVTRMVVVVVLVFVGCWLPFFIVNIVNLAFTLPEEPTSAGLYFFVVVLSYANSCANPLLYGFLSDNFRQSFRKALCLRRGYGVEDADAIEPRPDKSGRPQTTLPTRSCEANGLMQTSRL
Assay: Antagonist activity at mouse SSTR5 expressed in CHO-K1 cell membranes assessed as reduction in SST-28-induced inhibition of forskolin-stimulated cAMP accumulation by LANCE assay
Assay type: functional, cell-based
reported_property: pIC50
pIC50 is defined as minus the log10 of a concentration measured in mol/L.

Example molecules with recorded pIC50:
CCOc1cc(CN2CCC(NC(=O)c3cncc(C)c3)CC2)cc(OCC)c1-c1ccc(F)cc1    8.57
CCOc1cc(CN2CCC(c3ncc(-c4ccc(F)cc4)[nH]3)CC2)cc(OCC)c1-c1ccc(F)cc1    7.01
CCOc1cc(CN2CCC(C3CCN(S(=O)(=O)c4ccccc4)CC3)CC2)cc(OCC)c1-c1ccc(F)cc1    7.55
CCOc1cc(CN2CCC(COc3cccc4cccnc34)CC2)cc(OCC)c1-c1ccc(F)cc1    8.15

CCOc1cc(CN2CCC3(CC2)NC(=O)NC3=O)cc(OCC)c1-c1ccc(F)cc1 tested on UniProt O08858 gave pIC50: 8.13

CCOc1cc(CN2CC[C@H]3C(Nc4nc5ccc(C(=O)O)cc5o4)CC[C@H]32)cc(OCC)c1-c1ccc(F)cc1 (relative stereo) tested on UniProt O08858 gave pIC50: 8.21

----------
Experiment: Half life in mouse
Format: ADME, organism-based
Conditions: in vivo
reported_property: half-life (h)
The figure you give is taken to be in h; do not add the unit.

Value of half-life reported for the molecule CCOc1cc(CN2CC[C@H]3C(Nc4nc5ccc(C(=O)O)cc5o4)CC[C@H]32)cc(OCC)c1-c1ccc(F)cc1 (relative stereo) is 1.7

----------
Target: Sodium channel protein type 5 subunit alpha (Homo sapiens, UniProt Q14524)
Sequence (Q14524 whole entry): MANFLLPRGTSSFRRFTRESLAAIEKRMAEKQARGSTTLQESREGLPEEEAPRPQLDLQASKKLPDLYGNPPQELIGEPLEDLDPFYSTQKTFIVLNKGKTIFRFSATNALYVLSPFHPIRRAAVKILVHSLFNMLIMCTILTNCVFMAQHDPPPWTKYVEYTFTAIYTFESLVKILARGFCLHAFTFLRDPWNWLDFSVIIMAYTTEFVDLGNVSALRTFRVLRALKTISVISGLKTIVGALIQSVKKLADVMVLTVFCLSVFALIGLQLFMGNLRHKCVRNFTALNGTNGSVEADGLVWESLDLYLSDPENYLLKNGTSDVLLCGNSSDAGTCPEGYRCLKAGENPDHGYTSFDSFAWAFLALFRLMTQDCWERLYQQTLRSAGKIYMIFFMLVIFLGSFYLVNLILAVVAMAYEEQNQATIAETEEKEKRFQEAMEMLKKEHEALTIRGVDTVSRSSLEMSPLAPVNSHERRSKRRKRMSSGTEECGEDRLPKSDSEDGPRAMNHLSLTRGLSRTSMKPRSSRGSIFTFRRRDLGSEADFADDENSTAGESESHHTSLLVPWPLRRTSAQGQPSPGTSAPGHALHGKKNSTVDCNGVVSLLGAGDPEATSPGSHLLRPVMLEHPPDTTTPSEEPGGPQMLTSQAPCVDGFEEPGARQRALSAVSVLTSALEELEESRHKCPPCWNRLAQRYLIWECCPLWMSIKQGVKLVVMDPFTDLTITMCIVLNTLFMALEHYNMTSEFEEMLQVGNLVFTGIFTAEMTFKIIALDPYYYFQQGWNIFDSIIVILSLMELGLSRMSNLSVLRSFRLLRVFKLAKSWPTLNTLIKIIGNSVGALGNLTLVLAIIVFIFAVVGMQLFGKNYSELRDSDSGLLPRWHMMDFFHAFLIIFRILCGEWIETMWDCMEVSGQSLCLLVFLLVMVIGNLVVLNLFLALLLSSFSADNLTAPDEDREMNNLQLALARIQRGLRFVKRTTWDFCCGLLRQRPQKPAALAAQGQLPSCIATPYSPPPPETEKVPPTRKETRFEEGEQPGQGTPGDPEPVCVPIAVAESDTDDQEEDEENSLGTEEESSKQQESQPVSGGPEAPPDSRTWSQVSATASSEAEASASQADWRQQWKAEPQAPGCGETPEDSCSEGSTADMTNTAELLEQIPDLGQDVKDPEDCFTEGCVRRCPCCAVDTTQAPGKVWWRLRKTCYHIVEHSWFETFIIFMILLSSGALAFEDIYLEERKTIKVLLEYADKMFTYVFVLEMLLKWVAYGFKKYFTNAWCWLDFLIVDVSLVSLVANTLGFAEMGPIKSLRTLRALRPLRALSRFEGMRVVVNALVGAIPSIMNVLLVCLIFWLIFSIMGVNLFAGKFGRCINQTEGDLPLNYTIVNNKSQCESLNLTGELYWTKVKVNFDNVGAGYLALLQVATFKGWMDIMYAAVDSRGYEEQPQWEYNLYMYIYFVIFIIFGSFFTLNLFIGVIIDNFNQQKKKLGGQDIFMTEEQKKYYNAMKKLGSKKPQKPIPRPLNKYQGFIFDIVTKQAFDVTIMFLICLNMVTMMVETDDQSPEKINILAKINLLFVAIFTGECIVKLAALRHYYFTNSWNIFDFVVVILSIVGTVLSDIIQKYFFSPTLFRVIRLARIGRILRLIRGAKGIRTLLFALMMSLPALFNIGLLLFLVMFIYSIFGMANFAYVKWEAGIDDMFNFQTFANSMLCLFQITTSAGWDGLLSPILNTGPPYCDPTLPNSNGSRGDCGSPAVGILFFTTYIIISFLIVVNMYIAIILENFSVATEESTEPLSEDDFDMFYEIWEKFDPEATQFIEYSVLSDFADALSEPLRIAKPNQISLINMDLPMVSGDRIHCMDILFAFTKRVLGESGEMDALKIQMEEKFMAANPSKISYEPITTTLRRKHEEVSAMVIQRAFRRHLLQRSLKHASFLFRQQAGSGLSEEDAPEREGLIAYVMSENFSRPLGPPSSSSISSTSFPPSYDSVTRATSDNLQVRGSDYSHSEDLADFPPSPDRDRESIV
Experiment: Inhibition of Nav1.5 (unknown origin)
reported_property: IC50

Value of IC50 reported for the compound CCOc1cc(CN2CCC3(CC2)CC(=O)N(c2ccc(C(=O)O)cc2)C3)cc(OCC)c1-c1ccc(F)cc1.O=C(O)C(F)(F)F is > 15 µM

----------
Molecular target: UniProt:O08858
Assay: Displacement of (3-125I-Tyr11)-SRIF-28 from mouse SSTR5 expressed in CHO-K1 cell membranes by filtration binding assay
Lab note: cut-off is 3 nM. Strictly less in IC50 is class 1. Exactly 3 nM or more is class 0.

CCOc1cc(CN2CCC(C3CCN(S(=O)(=O)c4ccccc4)CC3)CC2)cc(OCC)c1-c1ccc(F)cc1    class 1

Input: Bench note: check whether CCOc1cc(CN2CCC(NC(=O)c3cncc(C)c3)CC2)cc(OCC)c1-c1ccc(F)cc1 shows IC50 below 3 nM
Output: class 1

Input: Bench note: check whether CCOc1cc(CN2CCC3(CC2)NC(=O)NC3=O)cc(OCC)c1-c1ccc(F)cc1 shows IC50 below 3 nM
Output: class 0

----------
Target: Voltage-gated inwardly rectifying potassium channel KCNH2 (Homo sapiens)
Sequence (Q12809 whole entry): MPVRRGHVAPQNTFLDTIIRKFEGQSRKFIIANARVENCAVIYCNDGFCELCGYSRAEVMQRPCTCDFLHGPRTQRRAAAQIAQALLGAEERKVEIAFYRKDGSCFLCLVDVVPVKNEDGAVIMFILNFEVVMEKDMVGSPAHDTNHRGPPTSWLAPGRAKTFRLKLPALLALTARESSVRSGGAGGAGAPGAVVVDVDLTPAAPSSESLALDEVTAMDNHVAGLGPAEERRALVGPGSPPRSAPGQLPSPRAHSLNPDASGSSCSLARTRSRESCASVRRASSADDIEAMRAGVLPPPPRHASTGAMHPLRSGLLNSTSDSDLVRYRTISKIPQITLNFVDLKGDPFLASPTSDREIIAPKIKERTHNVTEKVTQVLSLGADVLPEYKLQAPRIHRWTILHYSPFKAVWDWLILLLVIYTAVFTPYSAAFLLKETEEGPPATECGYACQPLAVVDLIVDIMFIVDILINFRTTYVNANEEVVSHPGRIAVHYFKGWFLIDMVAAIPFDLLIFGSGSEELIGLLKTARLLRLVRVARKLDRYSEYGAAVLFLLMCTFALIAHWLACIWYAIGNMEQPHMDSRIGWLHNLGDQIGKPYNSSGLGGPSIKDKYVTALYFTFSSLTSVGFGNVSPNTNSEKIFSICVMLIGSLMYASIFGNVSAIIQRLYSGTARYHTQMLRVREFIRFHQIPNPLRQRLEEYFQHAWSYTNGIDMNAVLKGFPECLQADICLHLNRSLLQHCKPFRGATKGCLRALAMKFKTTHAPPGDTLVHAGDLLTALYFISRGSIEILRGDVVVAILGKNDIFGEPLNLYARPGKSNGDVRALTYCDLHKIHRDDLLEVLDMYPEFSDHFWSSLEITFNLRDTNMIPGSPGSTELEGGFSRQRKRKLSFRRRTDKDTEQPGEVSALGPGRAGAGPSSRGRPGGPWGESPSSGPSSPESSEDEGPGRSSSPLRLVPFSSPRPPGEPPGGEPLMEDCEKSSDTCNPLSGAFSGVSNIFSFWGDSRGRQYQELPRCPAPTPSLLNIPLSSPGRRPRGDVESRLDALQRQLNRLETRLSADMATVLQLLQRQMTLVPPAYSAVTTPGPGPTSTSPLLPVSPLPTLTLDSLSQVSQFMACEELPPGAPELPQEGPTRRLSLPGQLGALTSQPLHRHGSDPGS
Assay: Inhibition of MK-499 binding to human ERG
# IC50 values compiled below
The figure you give is taken to be in µM; do not add the unit.

CCOc1cc(CN2CCC3(CC2)NC(=O)NC3=O)cc(OCC)c1-c1ccc(F)cc1    25
CCOc1cc(CN2CC[C@H]3C(Nc4nc5ccc(C(=O)O)cc5o4)CC[C@H]32)cc(OCC)c1-c1ccc(F)cc1 (relative stereo)    15
CCOc1cc(CN2CCC(NC(=O)c3cncc(C)c3)CC2)cc(OCC)c1-c1ccc(F)cc1    1.69
CCOc1cc(CN2CCC3(CC2)CCN(S(=O)(=O)c2cccnc2)CC3)cc(OCC)c1-c1ccc(F)cc1    0.21
CCOc1cc(CN2CCC(C3CCN(S(=O)(=O)c4ccccc4)CC3)CC2)cc(OCC)c1-c1ccc(F)cc1    0.22

Value of IC50 reported for the compound CCOc1cc(CN2CCC(COc3cccc4cccnc34)CC2)cc(OCC)c1-c1ccc(F)cc1 is 0.21

Value of IC50 reported for the compound CCOc1cc(CN2CCC(c3ncc(-c4ccc(F)cc4)[nH]3)CC2)cc(OCC)c1-c1ccc(F)cc1 is 0.26

Value of IC50 reported for the compound CCOc1cc(CN2CCC3(CC2)CC(=O)N(c2ccc(C(=O)O)cc2)C3)cc(OCC)c1-c1ccc(F)cc1.O=C(O)C(F)(F)F is 45
